- Test system: E. coli TolC(−)
- ASSAY TEXT: TolC(−) MIC (NB)
- Type: cell-based
- TEST CONTEXT: Escherichia coli, read-out: TolC(−) MIC (μM)(NB)
Just so you know, the groups by MIC go like this: low interval: < 2 µM; middle interval: ≥ 2 µM and < 10 µM; high interval: ≥ 10 µM

[in] Input CC1(C)CCCN(C(=O)Nc2nnc(-c3ccc(F)cc3)o2)CC1 [compound 4922] ; output its category
[out] high interval

[in] Input O=C(Nc1nnc(C2CCCCC2)o1)N1CC=C(C(F)(F)F)CC1 [compound 4806] ; output its category
[out] high interval

[in] Input O=C(Nc1nnc(-c2ccc(F)cc2)o1)N1CCC(F)(F)CC1 [compound 4686] ; output its category
[out] high interval

[in] Input COc1ccc(Oc2ccc(C(=O)Nc3nnc(-c4ccc(F)cc4)o3)cc2)cc1 [compound 4310] ; output its category
[out] low interval

[in] Input Cc1cccc(-c2nnc(NC(=O)c3ccc(Oc4ccccc4)nc3)o2)c1 [compound 4499] ; output its category
[out] low interval

[in] Input CC(=O)N1CCN(C(=O)Nc2nnc(-c3ccc(F)cc3)o2)CC1 [compound 4198] ; output its category
[out] high interval

[in] Input O=C(Nc1nnc(-c2ccc(F)cc2)o1)N1CCc2ccccc2C1 [compound 4132] ; output its category
[out] middle interval

[in] Input CC1=C(C)CN(C(=O)Nc2nnc(-c3ccc(F)cc3)o2)CC1 [compound 4738] ; output its category
[out] middle interval

[in] Input CCC1CCN(C(=O)Nc2nnc(-c3ccc(F)cc3)o2)CC1 [compound 4933] ; output its category
[out] middle interval

[in] Input O=C(Nc1nnc(C2CCCCC2)o1)c1ccc(OC2CCCCC2)nc1 [compound 4925] ; output its category
[out] low interval

[in] Input O=C(Nc1nnc(Cc2ccc(F)cc2)o1)c1ccc(Oc2ccccc2)nc1 [compound 4802] ; output its category
[out] middle interval

[in] Input O=C(Nc1nnc(-c2ccc(F)cc2)o1)N1CCC=CCC1 [compound 4935] ; output its category
[out] high interval

[in] Input CCCC1CCN(C(=O)Nc2nnc(-c3ccc(F)cc3)o2)CC1 [compound 4934] ; output its category
[out] middle interval

[in] Input O=C(Nc1nnc(-c2ccc(F)cc2)o1)N1CCCC(O)C1 (stereo not drawn) [compound 5201] ; output its category
[out] high interval

[in] Input O=C(Nc1nnc(-c2ccc(F)cc2)o1)N1CCc2ccccc2CC1 [compound 4936] ; output its category
[out] middle interval

[in] Input COC(=O)C1CCN(C(=O)Nc2nnc(-c3ccc(F)cc3)o2)CC1 [compound 4701] ; output its category
[out] high interval

[in] Input O=C(Nc1nnc(-c2ccc(F)cc2)o1)N1CCc2ccc(F)cc2C1 [compound 4332] ; output its category
[out] middle interval

[in] Input Cc1ccccc1-c1nnc(NC(=O)c2ccc(Oc3ccccc3)nc2)o1 [compound 4498] ; output its category
[out] middle interval

[in] Input Cc1ccc(Oc2ccc(C(=O)Nc3nnc(-c4ccc(F)cc4)o3)cc2)cc1 [compound 4305] ; output its category
[out] low interval

[in] Input O=C(Nc1nnc(-c2ccc(F)cc2)o1)N1CC=C(C(F)(F)F)CC1 [compound 4347] ; output its category
[out] middle interval

[in] Input O=C(Nc1nnc(-c2ccc(F)cc2)o1)N1CCC(F)(F)C1 [compound 4930] ; output its category
[out] high interval

[in] Input COc1cccc(Oc2ccc(C(=O)Nc3nnc(-c4ccc(F)cc4)o3)cc2)c1 [compound 4309] ; output its category
[out] low interval

[in] Input CC1(C)CCN(C(=O)Nc2nnc(-c3ccc(F)cc3)o2)CC1 [compound 4685] ; output its category
[out] high interval

[in] Input O=C(Nc1nnc(-c2ccc(F)cc2)o1)c1ccc(Oc2ccccc2)nc1 [compound 4237] ; output its category
[out] low interval

[in] Input CC1CCN(C(=O)Nc2nnc(-c3ccc(F)cc3)o2)CC1 [compound 4684] ; output its category
[out] high interval

[in] Input O=C(Nc1nnc(-c2ccc(F)cc2)o1)N1CCCCC1 [compound 4699] ; output its category
[out] high interval

[in] Input Cc1ccccc1Oc1ccc(C(=O)Nc2nnc(-c3ccc(F)cc3)o2)cc1 [compound 4307] ; output its category
[out] low interval

[in] Input COc1cc2c(cc1OC)CN(C(=O)Nc1nnc(-c3ccc(F)cc3)o1)CC2 [compound 4333] ; output its category
[out] high interval

[in] Input O=C(Nc1nnc(-c2ccc(F)cc2)o1)N1CCCCCC1 [compound 4700] ; output its category
[out] high interval

[in] Input Cc1cc(F)cc(C)c1-c1nnc(NC(=O)N2CCC(Cl)=C(Cl)C2)o1 [compound 5203] ; output its category
[out] low interval

[in] Input Cc1nnc(NC(=O)c2ccc(Oc3ccccc3)nc2)o1 [compound 4468] ; output its category
[out] high interval

[in] Input O=C(Nc1nnc(-c2ccc(F)cc2)o1)N1Cc2ccccc2C1 [compound 4330] ; output its category
[out] middle interval

[in] Input COCC1=CCN(C(=O)Nc2nnc(-c3ccc(F)cc3)o2)CC1 [compound 4843] ; output its category
[out] high interval

[in] Input O=C(Nc1nnc(C2COc3ccccc3O2)o1)c1ccc(OC2CCCCC2)nc1 (stereo not drawn) [compound 4926] ; output its category
[out] low interval

[in] Input Cc1cc(F)cc(C)c1-c1nnc(NC(=O)N2CCc3ccccc3C2)o1 [compound 5202] ; output its category
[out] middle interval

[in] Input O=C(Nc1nnc(-c2ccc(F)cc2)o1)N1CCN(C(=O)c2ccco2)CC1 [compound 4201] ; output its category
[out] high interval
